molecular target: Luciferin 4-monooxygenase (Photinus pyralis) (UniProt P08659); assay: firefly luciferase enzyme inhibitors, primary screen, biochemical, luminescence, purified enzyme, 2006 set (AID 1141); conditions: SteadyGlo luminescence, 30 min, higher = more signal, called active from +8 up or from −8 down;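 also: cell-free assay with purified firefly luciferase at 100 ng per well in PBS; test concentration not given here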
Sequence (P08659 whole entry, looked up): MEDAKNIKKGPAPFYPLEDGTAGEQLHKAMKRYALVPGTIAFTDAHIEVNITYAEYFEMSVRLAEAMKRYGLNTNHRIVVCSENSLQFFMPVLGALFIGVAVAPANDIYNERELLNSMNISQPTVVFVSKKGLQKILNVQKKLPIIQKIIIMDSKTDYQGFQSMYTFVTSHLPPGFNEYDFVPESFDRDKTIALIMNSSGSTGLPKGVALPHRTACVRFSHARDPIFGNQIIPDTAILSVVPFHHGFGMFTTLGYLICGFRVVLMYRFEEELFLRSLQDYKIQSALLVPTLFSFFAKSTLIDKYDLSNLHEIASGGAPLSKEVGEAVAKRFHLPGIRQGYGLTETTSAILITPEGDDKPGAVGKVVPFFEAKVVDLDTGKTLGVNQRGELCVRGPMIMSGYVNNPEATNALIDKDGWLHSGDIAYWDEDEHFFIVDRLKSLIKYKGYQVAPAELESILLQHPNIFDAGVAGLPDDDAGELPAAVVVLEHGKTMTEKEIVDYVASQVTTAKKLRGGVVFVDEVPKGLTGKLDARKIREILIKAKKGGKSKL

[
  {
    "Molecule": "[N-]=[N+]=NCc1ccccc1C[C@@]1(C(=O)N2CCCCC2)N=C(c2ccc(OCCCO)cc2)O[C@@H]1c1ccccc1N=[N+]=[N-]",
    "z-score": -6.07
  },
  {
    "Molecule": "COCCOC(=O)N1C(=O)[C@@]2(c3cc(C#CCC(C(=O)OC)C(=O)OC)ccc31)[C@H](c1ccc(OCCO)cc1)N1[C@H](c3ccccc3)[C@H](c3ccccc3)OC(=O)[C@H]1[C@@H]2C(=O)N1CCN(c2ncccn2)CC1",
    "z-score": -0.506
  },
  {
    "Molecule": "O=c1cccc(-c2cccc(Cl)c2)o1",
    "z-score": 0.672
  },
  {
    "Molecule": "CC(CO)N1C(=O)[C@@H]2C3C(=O)OCCC/C=C\\[C@H]3OC23C=CCN(Cn2nnc4ccccc42)C(=O)[C@@H]13 (stereo not given in full)",
    "z-score": 0.196
  },
  {
    "Molecule": "CCOC(=O)C[C@H]1[C@H](OC(=O)Cc2ccc3c(c2)OCO3)[C@@H](NC(=O)Cc2ccc(OC)cc2)c2cc(OCCCO)ccc2N1C(=O)c1ccccc1",
    "z-score": -0.566
  },
  {
    "Molecule": "COCCOC(=O)N1C(=O)[C@@]2(c3cc(C#CC4(O)CCCCCC4)ccc31)[C@H](C(N)=O)[C@H]1C(=O)O[C@H](c3ccccc3)[C@H](c3ccccc3)N1[C@@H]2c1ccccc1OCCO",
    "z-score": -0.806
  },
  {
    "Molecule": "O=C1OCCC=C[C@H]2OC34C=CCN(c5ccc(Cl)cc5)C(=O)[C@H]3N(CCCCCO)C(=O)[C@@H]4C12 (stereo not given in full)",
    "z-score": -1.31
  },
  {
    "Molecule": "COc1ccccc1CN1C(=O)c2ccccc2[C@](Cc2ccccc2I)(C(=O)NC(C)C)[C@@H]1c1ccc(CO)cc1",
    "z-score": 1.35
  },
  {
    "Molecule": "O=C1OCC=C[C@H]2OC34C=CCN(c5ccc(Cl)cc5)C(=O)[C@H]3N(CCCCCO)C(=O)[C@@H]4[C@@H]12 (stereo not given in full)",
    "z-score": -0.232
  },
  {
    "Molecule": "CCCc1cccc(=O)o1",
    "z-score": 2.08
  },
  {
    "Molecule": "CC(=O)n1cc(C(O)C2C=CC3C(=O)N(Cc4ccccc4)C(=O)C3N2n2cnnc2)c2ccccc21 (stereo not given)",
    "z-score": 0.702
  },
  {
    "Molecule": "O=C1C2C=CC(C(O)c3cc(C(F)(F)F)cc(C(F)(F)F)c3)N(Nc3ccc([N+](=O)[O-])cc3)C2C(=O)N1c1ccccc1 (stereo not given)",
    "z-score": 0.833
  },
  {
    "Molecule": "C[C@H]1ON(c2ccc(C(=O)OC(C)(C)C)cc2)[C@@H](c2ccc(O)cc2)[C@@H]1C(=O)N1C(=O)OC[C@@H]1c1ccccc1",
    "z-score": -0.587
  },
  {
    "Molecule": "O=C(N1CCCCC1)[C@@]1(Cc2ccccc2)COC(c2ccc(OCCCO)cc2)=N1",
    "z-score": -0.117
  },
  {
    "Molecule": "CCCCC(CC)C(O)C1C=CC2C(=O)N(c3ccccc3)C(=O)C2N1Nc1ccc([N+](=O)[O-])cc1 (stereo not given)",
    "z-score": 0.262
  }
]
